tested on: primary cortical neuronal cultured cells; test: Test compound cytotoxicity, MTS assay, primary cortical neuronal cultures; assay type: cell-based, mouse; settings: 1 μM test compound
Measured attribute: Cytotox (% viable) Neuronal cells at 1 μM (%)
Dear colleague, please return just the value in %, with no unit written.

Reference set, count: 5
1) Oc1c(I)cc(I)c2cccnc12 = 91
2) Cc1ccc(-n2cnc3c(O)c(Cl)cc(Cl)c3c2=O)nc1 = 96
3) O=c1c2c(Cl)cc(Cl)c(O)c2ncn1Cc1ccncc1 = 98.4
4) CCn1cnc2c(O)c(Cl)cc(Cl)c2c1=O = 93
5) O=C(NCCc1ccccn1)c1ccc2cccc(O)c2n1 = 95

Problem: Need Cytotox (% viable) Neuronal cells at 1 μM, item `O=c1c2c(Cl)cc(Cl)c(O)c2ncn1Cc1ccccn1`
Solution: 99

Problem: Now the molecule `O=C(NCc1ccccn1)c1ccc2cccc(O)c2n1`
Solution: 96

Problem: Now the molecule `O=c1c(-c2ccc(Cl)cc2)cnc2c(O)cccn12`
Solution: 97

Problem: Now the molecule `CN(CCc1ccccn1)Cc1ccc2cccc(O)c2n1`
Solution: 97

Problem: Now the molecule `Nc1ccccc1NC(=O)c1cc(O)c2cccc(O)c2n1`
Solution: 98
